Cited source: PubChem BioAssay

test: small-molecule binders of probe aLefty1, primary screen, biochemical, small-molecule microarray, 635/667 nm fluorescence (AID 1153); details: higher = more signal;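 also: score merges spot fluorescence with signal-to-noise ratio from the scanned slide images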
composite z-score vs -0.05: at or above is 1 (yes), below is 0 (no).

Consider the worked cases shown below.
molecule: CC(=O)OC[C@H]1O[C@H](CC=NO[C@@H](C)c2cc(-c3c(C)cc(C)cc3C)no2)C=C[C@@H]1OC(C)=O
label: 0 (no)
--
molecule: C[C@@H]1CC[C@H]2C(=O)O[C@@H](COc3ccc(C(C)(C)C)cc3)CN2[C@H]1c1ccc(Br)cc1
label: 0 (no)
--
molecule: O=C1[C@H]2[C@H]3[C@H](O)[C@H](O)CC(=NOC[C@@H](O)COCc4ccco4)[C@@H]3CC[C@H]2C(=O)N1Cc1ccc2c(c1)OCO2
label: 0 (no)
--
molecule: CCOC(=O)CCN1C(=O)[C@H]2[C@H]3[C@H](O)[C@H](O)CC(=NOCC=C(C)CCC=C(C)C)[C@H]3CC[C@H]2C1=O
label: 1 (yes)
--
molecule: CC(=O)OC[C@H]1O[C@@H](ON=C(C)C)[C@H](OC(C)=O)[C@@H](OC(C)=O)[C@@H]1OC(C)=O
label: 1 (yes)

Reported composite z-score at or above -0.05? COc1ccc(-c2cnnc(CCCn3ccnc3-c3ccccc3)n2)cc1 0 (no)

Reported composite z-score at or above -0.05? CCN1C(=O)[C@H]2[C@H]3[C@H](O)[C@H](O)CC(=NOCC=C(C)CCC=C(C)C)[C@@H]3CC[C@H]2C1=O 0 (no)

Reported composite z-score at or above -0.05? O=C1C[C@@H](O)[C@@H](O)[C@@H]2[C@@H]3C(=O)N(c4ccc(F)cc4F)C(=O)[C@@H]3CC[C@H]12 0 (no)

Reported composite z-score at or above -0.05? C[C@@H]1CC[C@H]2C(=O)OC(CN3C(=O)c4ccccc4C3=O)CN2[C@H]1c1ccc(Br)cc1 (stereo partly drawn) 1 (yes)

Reported composite z-score at or above -0.05? COC(=O)C(C(=O)OC)C1CCCC(=O)C1 (stereo not drawn) 0 (no)

Reported composite z-score at or above -0.05? O=C1[C@H]2[C@H]3[C@H](O)[C@H](O)CC(=NOC[C@@H](O)COCc4ccco4)[C@@H]3CC[C@H]2C(=O)N1c1cccc(Oc2ccccc2)c1 0 (no)

Reported composite z-score at or above -0.05? C[C@H]1CC[C@H]2C(=O)OC(COc3ccc(C(C)(C)C)cc3)CN2[C@@H]1c1ccc(Br)cc1 (stereo partly drawn) 0 (no)

Reported composite z-score at or above -0.05? CCCNC(=O)OC[C@H]1O[C@H](CCON=C2c3cc(OC)ccc3O[C@H](c3cccc(OC)c3)[C@H]2O)C=C[C@@H]1Oc1ccc(OC)cc1 0 (no)

Reported composite z-score at or above -0.05? CCOC(=O)CCN1C(=O)[C@H]2[C@H]3[C@H](O)[C@H](O)CC(=NO[C@@H]4O[C@H](CO)[C@@H](O)[C@H](O)[C@H]4O)[C@@H]3CC[C@H]2C1=O 1 (yes)

Reported composite z-score at or above -0.05? C=CC[C@@H]1C=CC(ON=C(C)C)[C@@H](CO)O1 (stereo partly drawn) 0 (no)

Reported composite z-score at or above -0.05? CO[C@@H]1COC(=O)CC=C[C@H](C)[C@H](OC)COC(=O)[C@@H]2CCCN2C(=O)CC=C[C@H]1C 0 (no)

Reported composite z-score at or above -0.05? C=CC[C@@H]1C=C[C@H](ON=CC[C@@H]2C=C[C@H](OC(C)=O)[C@@H](COC(C)=O)O2)[C@@H](CO)O1 1 (yes)
